Where do the numbers come from? From ChEMBL document CHEMBL5543059.

Entries and their IC50
System: BV-2
measurementDescription: Antiinflammatory activity in mouse BV-2 cells assessed as reduction in LPS-induced NO production pre-treated with compound for 1 hr followed by LPS-stimulation and measured for 23 hrs by Griess reagent based analysis
Format: functional, cell-based

{"compound": "COc1c(-c2ccc(O)c(O)c2)oc2c(CC=C(C)C)c3c(c(O)c2c1=O)C=CC(C)(C)O3", "IC50, µM": 6.88}
{"compound": "CC(=O)O[C@@H]1c2c(ccc3c(=O)c(O)c(-c4ccccc4)oc23)OC(C)(C)[C@@H]1OC(C)=O", "IC50, µM": 11.3}
{"compound": "COc1c(-c2ccccc2)oc2c3c(ccc2c1=O)OC(C)(C)[C@H](O)C3", "IC50, µM": 11.3}
{"compound": "CC(C)=CCc1cc(-c2oc3cc(O)cc(O)c3c(=O)c2O)ccc1O [ISOLICOFLAVONOL]", "IC50, µM": 2.88}
{"compound": "COc1c(-c2ccc3c(c2)OCO3)oc2c(ccc3oc(C(C)(C)O)cc32)c1=O", "IC50, µM": 11.3}
{"compound": "COc1cc2oc(-c3ccc4c(c3)OCO4)c(OC)c(=O)c2cc1OC", "IC50, µM": 11.3}

====

Test system: BV-2
measurementDescription: Anti-inflammatory activity in mouse BV-2 cells assessed as reduction in LPS-induced NO production pre-treated with compounds for 2 hrs followed by LPS-stimulation measured for 22 hrs by Griess reagent based analysis
Format: functional, cell-based
pIC50: −log10 of the molar value.
Everything with pIC50 lower than 5 is NOT MET; everything else, including exactly 5, is MET.

{"compound": "COc1c([C@@H](CC(=O)c2ccccc2)OC)c(O)cc2occc12", "classAssignment": "NOT MET"}
{"compound": "O=C(/C=C/c1ccc(O)cc1)c1ccc(O)cc1O [ISOLIQUIRITIGENIN]", "classAssignment": "MET"}
{"compound": "CC(C)=CCc1cc(C(=O)/C=C/c2ccc(O)cc2O)c(O)cc1O", "classAssignment": "MET"}
{"compound": "CC(C)=CCc1c(O)ccc(C(=O)/C=C/c2cc3c(cc2O)OCO3)c1O", "classAssignment": "MET"}

====

measurementDescription: Anti-inflammatory activity in carrageenan-induced human PBMC cells assessed as inhibition of IL-beta leakage at 10 uM measured for 24 hrs relative to control
Format: functional
Design: scale not given: the % may be the effect or the level left
readoutName: Activity (%)

{"smilesStructure": "COc1ccc(-c2cc(=O)c3c(O)c(OC)c(OC)c(O)c3o2)cc1OC", "readingUnit": "%", "valueMeasured": 34.4}
{"smilesStructure": "COc1ccc(-c2cc(=O)c3c(O)c(OC)c(OC)c(OC)c3o2)cc1OC", "readingUnit": "%", "valueMeasured": 24.8}
{"smilesStructure": "COc1ccc(-c2cc(=O)c3c(O)c(OC)c(OC)cc3o2)cc1OC", "readingUnit": "%", "valueMeasured": 16.8}
{"smilesStructure": "COc1ccc(-c2cc(=O)c3c(O)c(OC)c(OC)c(OC)c3o2)cc1", "readingUnit": "%", "valueMeasured": 33.8}

====

measurementDescription: Antioxidant activity assessed as ABTS radical scavenging activity incubated for 40 mins
Assay type: functional

{"smilesStructure": "O=C1O[C@H]([C@@H](O)CO)C(O)=C1O", "readingUnit": "µM", "IC50": 3.3}
{"smilesStructure": "COc1c(O)ccc2c(=O)cc(-c3ccc(O)c(O)c3)oc12", "readingUnit": "µM", "IC50": 7.9}

====

Below, each entry is listed with its recorded pIC50.
System: J774.A1
measurementDescription: Antiinflammatory activity in LPS-induced mouse J774.A1 macrophage cells assessed as reduction in LPS-induced IL-1 beta level
Assay type: functional, cell-based
pIC50: −log10 of the molar value.
readoutName: pIC50

{"compound": "COc1cc2oc(-c3ccccc3)cc(=O)c2c(O)c1OC [MOSLOFLAVONE]", "assayedTarget": "J774.A1", "valueMeasured": 5.19}
{"compound": "COc1cc2oc(-c3ccccc3)cc(=O)c2c(O)c1O", "assayedTarget": "J774.A1", "valueMeasured": 5.19}
{"compound": "COc1c2c(cc3oc(-c4ccccc4)cc(=O)c13)OCO2", "assayedTarget": "J774.A1", "valueMeasured": 5.19}

====

System: RAW264.7
measurementDescription: Anti-inflammatory activity in mouse RAW264.7 cells assessed as inhibition of LPS-induced TNFalpha production preincubated for 1 hr followed by LPS addition and measured after 24 hrs by ELISA
Type: functional, cell-based
pIC50: −log10 of the molar value.

{"smilesStructure": "O=c1c(O)c(-c2cc(O)c(O)c(O)c2)oc2cc(O)cc(O)c12", "pIC50": 4.62}

====

System: RAW264.7
measurementDescription: Anti-inflammatory activity against mouse RAW264.7 cells assessed as inhibition of LPS-induced IL-1beta mRNA expression level pretreated for 30 mins followed by LPS-induction and measured after 6 hrs by RT-PCR analysis
Type: functional, cell-based
readoutName: IC50 (µM)

{"smilesStructure": "COc1cc(O)c(C(=O)/C=C/c2ccccc2)c(O)c1", "readoutName": "IC50", "readingUnit": "µM", "valueMeasured": 43.1}

====

System: RAW264.7
measurementDescription: Anti-inflammatory activity against mouse RAW264.7 cells assessed as reduction in NO production pre-incubated with compound for 1 hrs followed by LPS-stimulation and measured for 1 hrs by […]
Format: functional, cell-based
pIC50: −log10 of the molar value.

{"smilesStructure": "O=C1C[C@@H](c2ccc(O)cc2)Oc2cc(O)ccc21", "pIC50": 4.79}

====

Tested on: RAW264.7
measurementDescription: Anti-inflammatory activity against mouse RAW264.7 cells assessed as inhibition of TNF-alpha production incubated for 18 hrs by ELISA analysis
Format: functional, cell-based
conditionDetails: RAW264.7, 18 h
pIC50: −log10 of the molar value.

{"molecule": "COc1cc(O)c2c(c1)OC(c1ccccc1)CC2=O (stereo unspecified)", "pIC50": "> 4.66"}

====

Test system: Mus musculus
measurementDescription: Antiinflammatory activity against TPA-induced CD-1 mouse ear edema model assessed as reduction in ear edema
Format: functional, organism-based

{"smilesStructure": "O=C1C[C@@H](c2ccc(O)c(O)c2)Oc2cc(O)cc(O)c21", "assayedTarget": "Mus musculus", "IC50 (nM)": 720}

====

Tested on: Neutrophil
measurementDescription: Inhibition of fMLF/CB-induced human Neutrophil activation assessed as reduction in superoxide anion
Format: functional, cell-based
readoutName: IC50 (µM)

{"molecule": "O=S(=O)(F)Cc1ccccc1 [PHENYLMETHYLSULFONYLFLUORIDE]", "readingUnit": "µM", "valueMeasured": 95}
{"molecule": "O=C1C[C@@H](c2ccc(O)cc2)Oc2cc(O)cc(O)c21", "readingUnit": "µM", "valueMeasured": 3.3}
{"molecule": "Cc1cc2oc(-c3ccc(O)c(O)c3)cc(=O)c2c2c1C[C@@]1(C)C(C)(C)CCC[C@@]1(C)O2", "readingUnit": "µM", "valueMeasured": 5.8}
{"molecule": "CC1(C)CCC[C@@]2(C)Oc3c(ccc4oc(-c5ccc(O)c(O)c5)cc(=O)c34)C[C@@]12C", "readingUnit": "µM", "valueMeasured": 2.2}
{"molecule": "O=c1cc(N2CCOCC2)oc2c(-c3ccccc3)cccc12", "readingUnit": "µM", "valueMeasured": 1.1}

====

Test system: B16-F10
measurementDescription: Anti-inflammatory activity in LPS-stimulated mouse B16-F10 cells assessed as reduction in TNFalpha production measured for 12 hrs by ELISA method
Format: functional, cell-based
conditionDetails: B16-F10, 12 h
readoutName: IC50 (µM)

{"molecule": "COc1c(OC)c(O)c2c(=O)cc(-c3ccc(O)c(O)c3)oc2c1OC [SIDERITIFLAVONE]", "readoutName": "IC50", "valueMeasured": 5.6}
{"molecule": "COc1c(OC)c(O)c2c(=O)cc(-c3ccc(O)cc3)oc2c1OC [XANTHOMICROL]", "readoutName": "IC50", "valueMeasured": 3.8}
{"molecule": "COc1ccc2oc(-c3ccc(OC)c(OC)c3)cc(=O)c2c1", "readoutName": "IC50", "valueMeasured": 1.3}

====

assayedTarget: Neutrophil elastase (Homo sapiens)
Sequence (P08246 whole entry): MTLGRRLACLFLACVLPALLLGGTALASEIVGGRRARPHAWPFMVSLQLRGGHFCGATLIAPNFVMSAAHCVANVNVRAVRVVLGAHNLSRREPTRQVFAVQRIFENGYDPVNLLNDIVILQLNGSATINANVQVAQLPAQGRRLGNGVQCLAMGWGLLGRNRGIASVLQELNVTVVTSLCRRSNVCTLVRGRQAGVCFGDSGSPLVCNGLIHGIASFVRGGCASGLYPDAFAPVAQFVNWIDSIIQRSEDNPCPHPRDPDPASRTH
measurementDescription: Inhibition of human Neutrophil elastase
pIC50: −log10 of the molar value.

{"smilesStructure": "COc1ccc(-c2cc(=O)c3c(O)c(OC)c(OC)c(OC)c3o2)cc1OC", "pIC50": 6.46}
